biological target: TNF-alpha (UniProt P01375 77-233); experiment: graphene FET (Hill-Langmuir fit); 2000 Da PEG, 1x PBS; 1x PBS, artificial sweat (10x diluted or undiluted) or undiluted lavage fluid; aptamer immobilized on graphene; pH and temperature not stated; conditions: protein: commercial; chain copies: 3; G-quadruplex, two G-tetrads
Sequence (P01375 77-233): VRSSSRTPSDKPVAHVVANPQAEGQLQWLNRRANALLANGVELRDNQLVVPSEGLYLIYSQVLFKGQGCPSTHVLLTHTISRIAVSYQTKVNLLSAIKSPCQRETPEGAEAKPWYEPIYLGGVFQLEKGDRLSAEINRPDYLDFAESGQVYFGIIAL
endpoint: Kd (nM)
Record the value in nM, omitting the unit from your answer.

Endpoint output: Kd of TGGTGGATGGCGCAGTCGGCGACAA (ssDNA, 5'-NH2) [TNF-alpha aptamer] . Value?
1.21

Entry source: paper PMC11939848
